Test system: anesthetized dog
Test: Effect on electrocardiogram of anesthetized dog
Type: in vivo
Conditions: Individual 2 (female), 2 mg/kg/10 min i.v., 0 min (immediately before start of administration); Fridericia
Procedure: A male beagle and a female beagle of 11 months of age were used in the test. […] In measurement of the electrocardiogram, bipolar extremity leads (I, II and III) and augmented unipolar extremity leads (aVR, aVL and aVF) were recorded and QT interval determined by using an electrocardiogram analyzer for animals (α6000AX-D, Fukuda M-E Kogyo Co., Ltd.), as needle electrodes were placed on four extremities. […]
endpoint: QTc (ms)
Give bare numbers, in ms.

Request: Need QTc, item COc1cc(CN[C@@H](C)[C@H](O)c2ccc(O)c(NS(C)(=O)=O)c2)cc(OC)c1 [Example 1]
Response: 293

The measured values listed here are drawn from patent US8198330B2.
